assay: Chemical stability of the compound in sodium phosphate buffer assessed as purity 0.5 mM at pH 2.2 at 37 degC after 1 week by UHLPC-UV analysis; type: physicochemical; conditions: read-out: Stability
Experimental readout: remaining at 168 h, 500 µM (%)
Answer in %, number only, no unit symbol.

Ask: Name the reported remaining at 168 h, 500 µM value associated with the molecule "CCCC[C@H](NC(=O)[C@H](Cc1ccc(OS(=O)(=O)O)cc1)NC(=O)[C@H](CC(=O)O)NC(=O)COCCOCCNC(=O)COCCOCCNC(=O)CC[C@H](NC(=O)CCCCCCCCCCCCCCCCC(=O)O)C(=O)O)C(=O)NCC(=O)N[C@@H](Cc1c[nH]c2ccccc12)C(=O)N[C@@H](CCCC)C(=O)N[C@@H](CC(=O)O)C(=O)N[C@@H](Cc1ccccc1)C(N)=O"
Reply: 22
